# tgt: Human Cot (Homo sapiens (Human))
# Sequence (P41279 30-397): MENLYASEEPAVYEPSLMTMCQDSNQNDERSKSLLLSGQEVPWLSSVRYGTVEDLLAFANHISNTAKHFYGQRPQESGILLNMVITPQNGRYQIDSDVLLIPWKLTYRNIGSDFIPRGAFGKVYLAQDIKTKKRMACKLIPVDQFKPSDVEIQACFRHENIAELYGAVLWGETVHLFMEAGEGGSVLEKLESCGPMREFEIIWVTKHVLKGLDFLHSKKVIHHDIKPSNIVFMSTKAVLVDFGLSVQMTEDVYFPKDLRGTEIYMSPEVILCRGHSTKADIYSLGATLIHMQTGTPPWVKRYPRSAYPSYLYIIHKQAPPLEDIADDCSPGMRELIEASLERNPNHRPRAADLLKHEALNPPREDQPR
# testProtocol: High Throughput Cot Biochemical Assay
# assayConditions: IC50 HTRF, Cot HTRF (TR-FRET) biochemical assay
IC50 strictly less than 5 nM = 1. Otherwise 0.

1) Cc1nc2cccc([C@H](Nc3cc(C#N)c4ncc(C#N)c(NCC(C)(C)C)c4c3)c3cn(C4CC4)nn3)c2s1    1
2) Cc1nc(F)ccc1[C@H](Nc1cc(Cl)c2ncc(C#N)c(NCC(C)(C)C)c2c1)c1cn(C2CC2)nn1    1
3) Cc1nc(F)ccc1[C@H](Nc1cc(Cl)c2ncc(C#N)c(NCC(C)(C)C)c2c1)c1cn(C2(C(F)(F)F)CC2)nn1    0
4) CC(C)(C)CNc1c(C#N)cnc2c(Cl)cc(N[C@H](c3cn(C4(C(F)F)CC4)nn3)c3cccc4ncccc34)cc12    1
5) Cc1nc(F)ccc1[C@H](Nc1cc(Cl)c2ncc(C#N)c(NCC34CC(C3)C4)c2c1)c1cn(C2(C(F)(F)F)CC2)nn1    0
6) [2H][C@](Nc1cc(Cl)c2ncc(C#N)c(N[C@H](CC)c3ccccc3)c2c1)(c1cccnc1)c1cn(C2CC2)nn1    1
7) Cc1ncsc1[C@H](Nc1cc(Cl)c2ncc(C#N)c(Nc3ccc(Cl)c(Cl)c3F)c2c1)c1cn(C(C)C)nn1    0
8) Cn1ccc2c([C@H](Nc3cc(Cl)c4ncc(C#N)c(NCC5(C(F)(F)F)CCC5)c4c3)c3cn(C4(C(F)F)CC4)nn3)cccc2c1=O    0
9) [2H]c1c([C@@H](Nc2cc(Cl)c3ncc(C#N)c(NCC(C)(C)C)c3c2)c2ccc(F)nc2C)nnn1C1(C(F)(F)F)CC1    1
10) [2H][C@](Nc1cc(OC)c2ncc(C#N)c(N[C@H](CC)c3ccccc3)c2c1)(c1ccc(F)nc1)c1cn(C2CC2)nn1    0
11) N#Cc1cnc2c(Cl)cc(N[C@@H](c3cscn3)c3cn(Cc4ccccn4)nn3)cc2c1Nc1ccc(F)c(Cl)c1    0
12) [2H]C(Nc1cc(Cl)c2ncc(C#N)c(NCC(C)(C)C)c2c1)(c1cn(C2CC2)nn1)c1cc(F)cnc1C (centres unmarked)    0
13) CCN1CCC(n2cc([C@@H](Nc3cc(Cl)c4ncc(C#N)c(Nc5ccc(F)c(Cl)c5)c4c3)c3cscc3Cl)nn2)CC1    1
14) Cn1nnc2cccc([C@H](Nc3cc(C#N)c4ncc(C#N)c(NCC(C)(C)C)c4c3)c3cn(C4(C(F)(F)F)CC4)nn3)c21    1
15) CC(C)(C)CNc1c(C#N)cnc2c(Cl)cc(N[C@H](c3cn(C4(C(N)=O)CCC4)nn3)c3cccc4ncccc34)cc12    1
16) CC(C)n1cc([C@@H](Nc2cc(Cl)c3ncc(C#N)c(Nc4ccc(F)c(Cl)c4)c3c2)c2cccnc2Cl)nn1    0
17) N#Cc1cnc2c(Cl)cc(N[C@@H](c3cccnc3)c3c[nH]nn3)cc2c1N[C@H](CCO)c1ccccc1    0
18) Cn1ncc2cccc([C@H](Nc3cc(Cl)c4ncc(C#N)c(NCC(C)(C)C)c4c3)c3cn(C4(C(F)(F)F)CC4)nn3)c21    0
19) Cc1nc(F)ccc1[C@H](Nc1cc(Cl)c2ncc(C#N)c(NCC(C)(C)C)c2c1)c1cn(C2CC23CC3)nn1 (some centres unmarked)    1
20) Cc1nc([C@H](Nc2cc(Cl)c3ncc(C#N)c(Nc4ccc(F)c(Cl)c4)c3c2)c2cn(C3CCN(C(C)(C)C)CC3)nn2)c(C)o1    0
21) N#CCCC(Nc1c(C#N)cnc2c(Cl)cc(N[C@H](c3cn(C4CC4)nn3)c3csc4c3CCN(C3COC3)C4)cc12)c1ccccc1 (some centres unmarked)    1
22) CCN1CCC(n2cc([C@@H](Nc3cc(Cl)c4ncc(C#N)c(Nc5ccc(F)c(Cl)c5)c4c3)c3cccnc3)nn2)CC1    1
23) Cc1nc(F)ccc1[C@H](Nc1cc(Cl)c2ncc(C#N)c(NCC(C)(C)C)c2c1)c1cn(Cc2c(F)cccc2F)nn1    1
24) CC(=O)c1cc(N[C@H](c2cn(C3(C(F)(F)F)CC3)nn2)c2cccc3ncsc23)cc2c(NCC(C)(C)C)c(C#N)cnc12    0

====

# Test system: TNFα
# testProtocol: Cot Monocyte TNFα Cell Based Assay
# assayConditions: Homo sapiens, Monocyte, read-out: EC50 TNF, LPS-stimulated human monocytes, TNFα TR-FRET
EC50 for assorted compounds
attributeMeasured: EC50 (nM)

1) CC(C)(C)CNc1c(C#N)cnc2c(Cl)cc(N[C@@H](c3ccc4nccn4c3)c3cn(C4(C(F)(F)F)CC4)nn3)cc12    424
2) Cc1nc(F)ccc1[C@H](Nc1cc(C#N)c2ncc(C#N)c(NCC34CC(C3)C4)c2c1)c1cn(C2(C(F)F)CC2)nn1    261
3) Cc1ccc2c([C@H](Nc3cc(C#N)c4ncc(C#N)c(NCC(C)(C)C)c4c3)c3cn(C45CC(C4)C5)nn3)cccc2n1    30
4) Cn1ccc2c([C@H](Nc3cc(C#N)c4ncc(C#N)c(NCC(C)(C)C)c4c3)c3cn(C4(C(F)F)CC4)nn3)cccc21    296
5) CC(C)(C)CNc1c(C#N)cnc2c(C#N)cc(N[C@H](c3cn(C4(C(F)(F)F)CC4)nn3)c3cccc4c(C#N)nccc34)cc12    116
6) CC(C)(C)CNc1c(C#N)cnc2c(C#N)cc(N[C@H](c3cn(C45CC(C4)C5)nn3)c3cccc4nc(C(F)F)ccc34)cc12    1000

====

pEC50 values for the molecules below.
# Test system: TNFα
# testProtocol: Cot Monocyte TNFα Cell Based Assay
# assayConditions: Homo sapiens, Monocyte, read-out: EC50 TNF, LPS-stimulated human monocytes, TNFα
pEC50: −log10 of the molar value.
attributeMeasured: pEC50

1. CC(C)(C)CNc1c(C#N)cnc2c(Br)cc(N[C@H](c3cn(C4CC4)nn3)c3cccc4nc(N)sc34)cc12    6.09
2. Cn1nnc2cccc([C@H](Nc3cc(Cl)c4ncc(C#N)c(NCC(C)(C)C)c4c3)c3cn(C4(C(F)(F)F)CC4)nn3)c21    7.28
3. Cc1nc(F)ccc1[C@H](Nc1cc(Cl)c2ncc(C#N)c(NCC3(C(F)(F)F)CCC3)c2c1)c1cn(C2(C(F)F)CC2)nn1    6.75
4. C[C@@H](Nc1c(C#N)cnc2c(Cl)cc(N[C@@H](c3cccnc3)c3cn(C4CCN(C(C)(C)C)CC4)nn3)cc12)c1ccccc1    6.80
5. Cc1nc(F)ccc1[C@H](Nc1cc(C#N)c2ncc(C#N)c(NCC(C)(C)C)c2c1)c1cn(C(C)(C)CF)nn1    7.59
6. Cc1nc(F)ccc1[C@H](Nc1cc(C#N)c2ncc(C#N)c(NCC(C)(C)C)c2c1)c1cn(C(C)(C)C(F)(F)F)nn1    6.97
7. Cc1ncccc1[C@H](Nc1cc(Cl)c2ncc(C#N)c(N[C@H](C)c3ccccc3)c2c1)c1c[nH]nn1    5.83

====

Below, each entry is listed alongside its reported EC50.
# System: TNFα
# testProtocol: Cot Monocyte TNFα Cell Based Assay
# assayConditions: Homo sapiens, Monocyte, read-out: EC50 TNF, LPS-stimulated human monocytes, TNFα
attributeMeasured: EC50 (nM)

1. [2H][C@](Nc1cc(Cl)c2ncc(C#N)c(Nc3cnc(F)c(F)c3)c2c1)(c1cncc(C#N)c1)c1cn(C2CC2)nn1 [Example 143]    898
2. Cc1nc(F)ccc1[C@H](Nc1cc(C#N)c2ncc(C#N)c(NCC(C)(C)CCl)c2c1)c1cn(C2(C(F)(F)F)CC2)nn1 [Example 637]    85
3. CCN1CCC(n2cc([C@@H](Nc3cc(Cl)c4ncc(C#N)c(Nc5ccc(F)c(Cl)c5)c4c3)c3ccc(Cl)nc3)nn2)CC1 [Example 379]    179

====

# System: TNFα
# testProtocol: Cot Monocyte TNFα Cell Based Assay
# assayConditions: Homo sapiens, Monocyte, read-out: EC50 TNF
pEC50: −log10 of the molar value.
attributeMeasured: pEC50

1. CCN1CCc2c([C@H](Nc3cc(Cl)c4ncc(C#N)c(Nc5ccc(F)c(Cl)c5)c4c3)c3cn(C4COC4)nn3)csc2C1    6.57

====

# tgt: Human Cot (Homo sapiens (Human))
# testProtocol: High Throughput Cot Biochemical Assay
# assayConditions: IC50 HTRF, Cot HTRF (TR-FRET) biochemical assay
pIC50: −log10 of the molar value.
pIC50 overview
attributeMeasured: pIC50

1. CC(C)(C)CNc1c(C#N)cnc2c(Cl)cc(N[C@@H](c3cccnc3)c3c[nH]nn3)cc12 [Example 167]    8.40
2. [2H][C@](Nc1cc(Cl)c2ncc(C#N)c(NCC(C)(C)C)c2c1)(c1ccc(F)nc1)c1cn(C2(C(F)F)CC2)nn1 [Example 518]    8.15
3. CC(C)(C)CNc1c(C#N)cnc2c(C#N)cc(N[C@H](c3cn(C4(C(F)(F)F)CC4)nn3)c3cccc4ncsc34)cc12 [Example 66]    8.52
4. N#Cc1cnc2c(Cl)cc(N[C@@H](c3cccnc3)c3cn(CCF)nn3)cc2c1Nc1cnc(F)c(F)c1 [Example 189]    8.10
5. CCN1CCc2c([C@H](Nc3cc(Cl)c4ncc(C#N)c(Nc5ccc(F)c(Cl)c5)c4c3)c3c[nH]nn3)csc2C1 [Example 270]    8.40
6. CC[C@@H](Nc1c(C#N)cnc2c(Cl)cc(N[C@H](c3cn(C4CCN(C(C)(C)C)CC4)nn3)c3cccnc3C)cc12)c1ccccc1 [Example 221]    8.70
7. CC(C)n1cc([C@@H](Nc2cc(Cl)c3ncc(C#N)c(Nc4ccc(F)c(Cl)c4)c3c2)c2cnco2)nn1 [Example 298]    7.41
8. CCC1(n2cc([C@@H](Nc3cc(Cl)c4ncc(C#N)c(NCC(C)(C)C)c4c3)c3ccc(F)nc3C)nn2)CC1 [Example 754]    8.52
9. CC(C)(C)CNc1c(C#N)cnc2c(Cl)cc(N[C@H](c3cn(C4(C#N)CC4)nn3)c3cccc4cnccc34)cc12 [Example 563]    8.70
10. CC(C)(C)CNc1c(C#N)cnc2c(C#N)cc(N[C@H](c3cn(C4CC4)nn3)c3csc4c3CCN(C3COC3)C4)cc12 [Example 433]    9.00
11. CC(C)(C)CNc1c(C#N)cnc2c(C#N)cc(N[C@H](c3cn(C4(C5CC5)CC4)nn3)c3cccc4cnccc34)cc12 [Example 703]    8.70
12. CCN1CCC(n2cc([C@@H](Nc3cc(Cl)c4ncc(C#N)c(Nc5ccc(F)c(Cl)c5)c4c3)c3ccc(Cl)nc3)nn2)CC1 [Example 379]    8.22
13. Cc1nc(F)ccc1[C@H](Nc1cc(Cl)c2ncc(C#N)c(NC3CCOC3(C)C)c2c1)c1cn(C2(C(F)F)CC2)nn1 (stereo partly shown) [Example 511]    8.22
